Data origin: patent US10336774B2

# targetUnderTest: SHP2 (Homo sapiens (Human), UniProt Q06124)
# protocolNotes: SHP2 Allosteric Inhibition Assay
# Type: biochemical
# measurementConditions: 0.5 nM SHP2 activated with 0.5 μM peptide IRS1_pY1172(dPEG8)pY1222, surrogate substrate DiFMUP, fluorescence
# Procedure: SHP2 Allosteric Inhibition Assay SHP2 is allosterically activated through binding of bis-tyrosyl-phorphorylated peptides to its Src Homology 2 (SH2) domains. […] The catalytic activity of SHP2 was monitored using the surrogate substrate DiFMUP in a prompt fluorescence assay format. […] The inhibitor dose response curves were analyzed using normalized IC50 regression curve fitting with control based normalization.
pIC50: −log10 of the molar value.
quantityKind: pIC50

[
  {
    "compound": "Nc1nc(N2CCC3(CCC[C@H]3N)CC2)cnc1Sc1cc(F)ncc1Cl",
    "targetUnderTest": "SHP2 (Homo sapiens (Human), UniProt Q06124)",
    "quantityKind": "pIC50",
    "recordedMeasurement": 6.51
  },
  {
    "compound": "Nc1cc(Sc2ncc(N3CCC4(CC3)C[C@H](O)C[C@H]4N)nc2N)c(Cl)c(Cl)n1",
    "targetUnderTest": "SHP2 (Homo sapiens (Human), UniProt Q06124)",
    "quantityKind": "pIC50",
    "recordedMeasurement": 8.40
  }
]

(P) Nc1nc(N2CCC3(CC2)CCC(F)(F)C3N)cnc1Sc1cccnc1C(F)(F)F (racemic)
(Q) Nc1nc(N2CCC3(CCC[C@H]3N)CC2)cnc1Sc1ccnc(Cl)c1Cl
Of P and Q , whose reported pIC50 is the larger number? Label of pick, please.
Q
(Q: 8.52, P: 6.42)

====

# targetUnderTest: SHP2 (Homo sapiens (Human), UniProt Q06124)
# protocolNotes: SHP2 Allosteric Inhibition Assay
# Type: biochemical
# measurementConditions: 0.5 nM SHP2 activated with 0.5 μM peptide IRS1_pY1172(dPEG8)pY1222, surrogate substrate DiFMUP, fluorescence
quantityKind: IC50 (µM)

Here is how some compounds turned out for IC50.
[
  {
    "compound": "Nc1nc(N2CCC3(CC2)OCC[C@H]3N)cnc1Sc1cccnc1C(F)(F)F",
    "IC50 (µM)": 0.349
  },
  {
    "compound": "NC(=O)c1nc(Sc2cccnc2C(F)(F)F)c(N)nc1N1CCC2(CCCC2N)CC1 (stereo in doubt)",
    "IC50 (µM)": 0.01
  },
  {
    "compound": "Nc1nc(N2CC3(CCC3N)C2)cnc1Sc1cccc(Cl)c1Cl (racemic)",
    "IC50 (µM)": 5.36
  }
]

(1) NC1=NCC2(CCN(c3cnc(Sc4cccnc4C(F)(F)F)c(N)n3)CC2)O1
(2) Nc1nc(N2CCC3(CCC[C@H]3N)CC2)cnc1Sc1ccncc1C(F)(F)F
Of 1 and 2 , whose reported IC50 is the larger number? Label of pick, please.
1
(1: 0.193 µM, 2: 0.042 µM)

(1) Nc1nc(N2CCC3(CC2)COC[C@@H]3N)cnc1Sc1ccnc(N)c1Cl
(2) NC1=NC(=O)CC12CCN(c1cnc(Sc3cccnc3C(F)(F)F)c(N)n1)CC2
Of 1 and 2 , whose reported IC50 is the larger number? Label of pick, please.
2

====

# targetUnderTest: SHP2 (Homo sapiens (Human), UniProt Q06124)
# protocolNotes: SHP2 Allosteric Inhibition Assay
# Format: biochemical
# measurementConditions: 0.5 nM SHP2 activated with 0.5 μM peptide IRS1_pY1172(dPEG8)pY1222, surrogate substrate DiFMUP, fluorescence
# Description: SHP2 Allosteric Inhibition Assay SHP2 is allosterically activated through binding of bis-tyrosyl-phorphorylated peptides to its Src Homology 2 (SH2) domains. […] The catalytic activity of SHP2 was monitored using the surrogate substrate DiFMUP in a prompt fluorescence assay format. […] The inhibitor dose response curves were analyzed using normalized IC50 regression curve fitting with control based normalization.
pIC50: −log10 of the molar value.
quantityKind: pIC50

[
  {
    "molecule": "Nc1nc(N2CCC3(CC2)COC[C@H]3N)cnc1Sc1ccnnc1Cl",
    "quantityKind": "pIC50",
    "recordedMeasurement": 7.14
  },
  {
    "molecule": "Nc1nc(N2CCC3(CC2)OCCC3N)cnc1Sc1cccnc1C(F)(F)F (stereo not shown)",
    "quantityKind": "pIC50",
    "recordedMeasurement": 6.63
  },
  {
    "molecule": "Nc1nc(N2CCC3(CCC[C@@H]3N)CC2)ncc1Sc1cccnc1C(F)(F)F",
    "quantityKind": "pIC50",
    "recordedMeasurement": 5.56
  },
  {
    "molecule": "Nc1nc(N2CCC3(CC[C@@H]3N)CC2)cnc1Sc1ccnc(N)c1Cl",
    "quantityKind": "pIC50",
    "recordedMeasurement": 7.38
  },
  {
    "molecule": "Nc1nc(N2CCC3(CCCCC3N)CC2)cnc1-c1cccc(Cl)c1Cl (stereo not shown)",
    "quantityKind": "pIC50",
    "recordedMeasurement": 7.13
  },
  {
    "molecule": "NC1=NC2(CCN(c3cnc(Sc4cccnc4C(F)(F)F)c(N)n3)CC2)CO1",
    "quantityKind": "pIC50",
    "recordedMeasurement": 7.25
  },
  {
    "molecule": "Nc1nc(N2CCC3(CC2)COC[C@H]3N)cnc1Sc1ccnc(Cl)c1Cl",
    "quantityKind": "pIC50",
    "recordedMeasurement": 8.15
  },
  {
    "molecule": "CO[C@@H]1C[C@@H](N)C2(CCN(c3cnc(Sc4ccnc(Cl)c4Cl)c(N)n3)CC2)C1",
    "quantityKind": "pIC50",
    "recordedMeasurement": 7.42
  }
]

(P) Nc1cccc(Sc2ncc(N3CCC4(CC[C@@H]4N)CC3)nc2N)c1Cl
(Q) Nc1nc(N2CCC3(CC2)C[C@@H](F)C[C@H]3N)cnc1Sc1ccnc(N)c1Cl
(R) Nc1nc(N2CCC3(CC2)C[C@@H](O)C[C@H]3N)cnc1Sc1ccnc(Cl)c1Cl
(S) Nc1nc(N2CCC3(CC2)CCC(F)(F)[C@@H]3N)cnc1Sc1cccnc1C(F)(F)F (racemic) [Example 83a]
(T) Nc1nc(N2CCC3(CC2)C(N)CCS3(=O)=O)cnc1Sc1cccc(Cl)c1Cl (stereo not shown)
Highest pIC50 first, then in falling order down to the smallest. Give the labels in the order specified.
R, Q, P, S, T

(A) Nc1nc(N2CCC3(CC2)C[C@@H](O)C[C@H]3N)cnc1Sc1cccnc1C(F)(F)F
(B) Nc1nc(N2CCC3(CC2)COC[C@H]3N)cnc1Sc1ccnc(F)c1Cl
Identify the item whose pIC50 is the smaller number: A or B Label of pick, please.
B

(A) Nc1cccc(Sc2ncc(N3CCC4(CCC[C@H]4N)CC3)nc2N)c1Cl
(B) Nc1nc(N2CCC3(CCCC3N)CC2)cnc1-c1cccc(Cl)c1Cl (stereo not shown)
(C) Nc1nc(N2CCC3(CC[C@@H]3N)CC2)cnc1Sc1ccnc(Cl)c1Cl
(D) Nc1nc(N2CCC3(CC2)C(N)CCS3(=O)=O)cnc1-c1cccc(Cl)c1Cl (stereo not shown)
Rank items: key pIC50, increasing. Give the labels in the order specified.
D, B, C, A
(D: 5.45, B: 7.14, C: 7.55, A: 7.96)
